Hello, the source for this data is patent US7691844B2, in case you need it.

- tgt: V1a (Homo sapiens, UniProt P37288)
- Sequence (P37288 whole entry): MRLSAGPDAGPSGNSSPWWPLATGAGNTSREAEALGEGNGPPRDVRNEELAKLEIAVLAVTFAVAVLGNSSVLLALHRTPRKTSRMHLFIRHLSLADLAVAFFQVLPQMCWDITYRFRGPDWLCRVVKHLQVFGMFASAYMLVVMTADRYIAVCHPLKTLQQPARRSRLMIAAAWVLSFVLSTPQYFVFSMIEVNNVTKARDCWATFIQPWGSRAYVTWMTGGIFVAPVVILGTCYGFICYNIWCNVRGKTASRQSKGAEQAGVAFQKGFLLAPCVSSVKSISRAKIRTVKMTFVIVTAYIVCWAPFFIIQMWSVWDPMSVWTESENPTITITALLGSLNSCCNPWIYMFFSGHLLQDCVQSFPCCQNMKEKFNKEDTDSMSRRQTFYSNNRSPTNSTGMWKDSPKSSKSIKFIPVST
- experimental_details: In-vitro receptor binding assay (3H-arginine-8-vasopressin), V1a
Label 1 when IC50 < 0.06 µM; otherwise 0.

In plain terms, does O=C(c1ccc(OC2CCCCC2)cc1)N1CCC2(C=CCCC2)Cc2ccccc21 (centres unmarked) [Compound 185] come in under 0.06 µM for IC50?
0

###

- tgt: V1a (Homo sapiens, UniProt P37288)
- experimental_details: In-vitro receptor binding assay (3H-arginine-8-vasopressin), V1a
observable: IC50 (µM)
The reply should be a number in µM, with the unit left off.

I'd like to know its IC50. The compound in question is CCOC(=O)C1=CC2(CC1)CCN(C(=O)c1ccc(NC(=O)c3ccccc3C)cc1)c1ccccc1C2 (stereo not shown)
0.069

Repeat for the following compound: O=C(Nc1ccccc1)c1ccc(C(=O)N2CCC3(C=CCCC3)Cc3ccccc32)cc1 (stereo not shown)
0.02

Repeat for the following compound: CN(C)CCNC(=O)C1=CC2(CC1)CCN(C(=O)c1ccc(NC(=O)c3ccccc3-c3ccccc3)cc1)c1ccccc1C2 (stereo not shown) [Compound 9]
0.005

Repeat for the following compound: N#Cc1cccc(C(=O)N2CCC3(C=CCCC3)Cc3ccccc32)c1 (stereo not shown)
0.53

###

- tgt: UniProt P30518
- Sequence (P30518 whole entry): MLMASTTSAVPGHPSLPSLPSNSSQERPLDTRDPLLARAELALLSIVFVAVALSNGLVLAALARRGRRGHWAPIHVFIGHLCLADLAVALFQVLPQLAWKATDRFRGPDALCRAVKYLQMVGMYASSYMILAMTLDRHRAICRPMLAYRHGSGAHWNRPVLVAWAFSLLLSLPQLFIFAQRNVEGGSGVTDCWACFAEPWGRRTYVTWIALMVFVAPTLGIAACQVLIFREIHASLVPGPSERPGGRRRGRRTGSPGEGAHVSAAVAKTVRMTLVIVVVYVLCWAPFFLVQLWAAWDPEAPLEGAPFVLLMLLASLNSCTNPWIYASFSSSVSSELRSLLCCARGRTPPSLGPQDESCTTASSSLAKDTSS
- experimental_details: In-vitro receptor binding assay (3H-arginine-8-vasopressin), V2
- condition: @ 1 μM
observable: Receptor Binding V2 (% Inh. @ concentration in μM) (% @ 1)
The reply should be a number in % @ 1, with the unit left off.

compound: CN(C)CCNC(=O)C1=CC2(CC1)CCN(C(=O)c1ccc(N)cc1)c1ccccc1C2 (stereo not drawn) [Compound 193]
value_measured: 0

compound: O=C(Nc1ccc(C(=O)N2CCC3(C=CCCC3)Cc3ccccc32)cc1)c1ccc(-c2ccccc2)cc1 (stereo not drawn)
value_measured: 2

compound: O=C(c1ccccc1-c1ccccc1)N1CCC2(C=CCCC2)Cc2ccccc21 (stereo not drawn)
value_measured: 12

compound: COc1ccc(C(=O)N2CCC3(C=CCCC3)Cc3ccccc32)c(OC)c1 (stereo not drawn)
value_measured: 27

compound: CN(C)c1ccc(C(=O)N2CCC3(C=CCCC3)Cc3cc(Cl)c(Cl)cc32)cc1 (stereo not drawn)
value_measured: 16

compound: O=C(Nc1ccccc1)N1CCC2(C=CCCC2)Cc2ccccc21 (stereo not drawn)
value_measured: 3

compound: CCCCOc1ccc(C(=O)N2CCC3(C=CCCC3)Cc3cc(Cl)c(Cl)cc32)cc1 (stereo not drawn)
value_measured: 10

compound: O=C(Nc1ccc(F)cc1)N1CCC2(C=CCCC2)Cc2ccccc21 (stereo not drawn)
value_measured: 4

I'd like to know its Receptor Binding V2 (% Inh. @ concentration in μM). The compound in question is COc1ccc(C(=O)Nc2ccc(C(=O)N3CCC4(C=CCCC4)Cc4ccccc43)cc2)cc1OC (stereo not drawn)
2

###

- tgt: V1a (Homo sapiens, UniProt P37288)
- experimental_details: In-vitro receptor binding assay (3H-arginine-8-vasopressin), V1a
- Experimental: (A) In-Vitro Binding Assay […] The reaction plates are allowed to sit at room temperature for one hour. The samples are filtered through Unifilter GF/C plates (presoaked in 0.3 polyethyleneimine). The plates are washed 5 times with cold physiological saline containing 0.05% Tween 20. […] The top of the plate is sealed, and the plate is counted. Non-specific binding is determined by the addition of 1.25 μM […]-vasopressin in those wells. % Inh. is calculated as follows: […]
observable: IC50 (µM)
The reply should be a number in µM, with the unit left off.

// solved cases for IC50 follow
molecule: COc1cc(C(=O)N2CCC3(C=CCCC3)Cc3ccccc32)ccc1-n1ccc(C=O)c1 (stereo not shown) [Compound 167]
value_measured: 0.06
--
molecule: O=C(c1ccc(-n2ccc(CO)c2)cc1)N1CCC2(C=CCCC2)Cc2ccccc21 (stereo not shown) [Compound 154]
value_measured: 0.025
--
molecule: O=C(Nc1ccccc1)Nc1ccc(C(=O)N2CCC3(C=CCCC3)Cc3ccccc32)cc1 (stereo not shown) [Compound 83]
value_measured: 0.17

Now take the following molecule into account.
Please tell me: IC50 of O=C(Nc1ccc(C(=O)N2CCC3(C=C(CO)CC3)Cc3ccccc32)cc1)c1ccccc1-c1ccccc1 (stereo not shown) [Compound 1] , system V1a (Homo sapiens, UniProt P37288)?
0.009
